SYSTEM TESTED: Insulin-degrading enzyme (Homo sapiens) (UniProt P14735)
Sequence (P14735 42-1019 limits assumed): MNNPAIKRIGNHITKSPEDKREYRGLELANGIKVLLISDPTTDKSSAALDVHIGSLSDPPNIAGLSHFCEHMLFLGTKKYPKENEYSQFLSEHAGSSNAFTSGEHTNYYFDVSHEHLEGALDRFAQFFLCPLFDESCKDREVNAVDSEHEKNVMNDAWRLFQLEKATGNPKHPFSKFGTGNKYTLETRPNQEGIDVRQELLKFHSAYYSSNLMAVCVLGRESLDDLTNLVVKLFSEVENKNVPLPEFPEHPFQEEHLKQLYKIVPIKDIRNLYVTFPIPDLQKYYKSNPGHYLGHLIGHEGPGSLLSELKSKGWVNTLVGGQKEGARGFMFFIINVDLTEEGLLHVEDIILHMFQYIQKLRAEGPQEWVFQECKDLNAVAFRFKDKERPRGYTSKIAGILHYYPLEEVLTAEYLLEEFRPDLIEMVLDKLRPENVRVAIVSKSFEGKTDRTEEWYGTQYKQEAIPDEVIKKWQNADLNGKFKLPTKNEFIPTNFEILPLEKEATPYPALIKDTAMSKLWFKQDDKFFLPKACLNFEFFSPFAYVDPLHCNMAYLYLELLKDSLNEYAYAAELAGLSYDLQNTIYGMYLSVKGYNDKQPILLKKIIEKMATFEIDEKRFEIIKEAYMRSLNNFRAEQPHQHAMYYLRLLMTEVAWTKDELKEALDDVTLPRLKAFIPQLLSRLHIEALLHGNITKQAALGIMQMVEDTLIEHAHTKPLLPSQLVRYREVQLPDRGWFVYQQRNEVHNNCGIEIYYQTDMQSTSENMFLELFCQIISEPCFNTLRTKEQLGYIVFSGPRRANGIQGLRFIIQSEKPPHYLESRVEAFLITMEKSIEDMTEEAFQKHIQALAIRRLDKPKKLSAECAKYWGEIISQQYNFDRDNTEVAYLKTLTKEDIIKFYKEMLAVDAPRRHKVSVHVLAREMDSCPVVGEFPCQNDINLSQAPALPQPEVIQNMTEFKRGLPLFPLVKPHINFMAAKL
TEST NAME: inhibitors of IDE decapeptide proteolysis, dose response, counter-screen for IDE exo-site inhibitor project, biochemical, kinetic mode (AID 1259348);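 also: purified IDE bound to fluorescein-labelled 6b probe FL-6b at the exo-site; test concentration not given here; probe displacement lowers polarization so hits show a drop in FP signal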
STUDY CONDITIONS: purified human IDE, fluorogenic decapeptide proteolysis, measured here: primary FP probe displacement screen, stronger effect = lower value
Catalogue of z-score readings, one per entry.

# COMPOUND, z-score
data = [
    ("COc1ccccc1-c1ccc([C@@H]2[C@@H](C#N)N(C(=O)c3cccnc3)[C@@H]2CO)cc1", -33.8),
    ("COc1cccc(-c2ccc([C@@H]3[C@@H](CO)N4CCCCN(CC5CC5)C[C@@H]34)cc2)c1", -2.88),
    ("Cc1cccc(-c2ccc([C@H]3[C@@H](CO)N4CCCCN(C(=O)c5ccncc5)C[C@H]34)cc2)c1", -18.3),
    ("COc1ccccc1-c1ccc(C2[C@@H]3CN(C(=O)c4cccnc4)C[C@H]2N3)cc1 (some centres not stated)", -13.8),
    ("Cc1ccccc1-c1ccc([C@@H]2[C@H]3CN(S(=O)(=O)c4cn(C)cn4)CCCCN3[C@H]2CO)cc1", -18.5),
    ("Cc1ccccc1-c1ccc([C@H]2[C@@H](CO)N3CCCCN(C(=O)c4cccnc4)C[C@@H]23)cc1", -4.79),
    ("Cc1ccccc1-c1ccc([C@@H]2[C@@H](CO)N3C(=O)CN(C(=O)Cc4ccccn4)C[C@@H]23)cc1", -19.9),
]

Values were extracted from PubChem BioAssay AID1259348.
